System: PCSK9 gene
Test: PCSK9 gRNA/SpCas9 editing in primary cynomolgus hepatocytes (Tables 2, 22)
Assay type: cell-based, cynomolgus monkey
Details: 100 ng/RNA/mL; SpCas9 mRNA MS002 1:1 by weight
m = 2'-O-methyl; r = 2'-OH (RNA)
metric-name: Cyno Primary Hepatocyte Editing % 100

INSERT INTO results (molecule, assay_value) VALUES
  ('GA246: PCSK9 gRNA; protospacer GCCAGCGCCTGGCGAGGGCT (SEQ ID NO: 239) (nucleic acid, sugars from the 5'' end m3 r94 m3, linkages s3 o93 s3 (s phosphorothioate, o phosphodiester), T or U not given here) guide: GCCAGCGCCUGGCGAGGGCUGUUUUAGAGCUAGAAAUAGCAAGUUAAAAUAAGGCUAGUCCGUUAUCAACUUGAAAAAGUGGCACCGAGUCGGUGCUUUU', '1.11%'),
  ('GA195: PCSK9 gRNA; protospacer ACCACCGGGAAATCGAGGGC (SEQ ID NO: 189) (nucleic acid, sugars from the 5'' end m3 r94 m3, linkages s3 o93 s3 (s phosphorothioate, o phosphodiester), T or U not given here) guide: ACCACCGGGAAAUCGAGGGCGUUUUAGAGCUAGAAAUAGCAAGUUAAAAUAAGGCUAGUCCGUUAUCAACUUGAAAAAGUGGCACCGAGUCGGUGCUUUU', '0.69%'),
  ('GA241: PCSK9 gRNA; protospacer TGCTGCTGCCCCTGGCGGGT (SEQ ID NO: 234) (nucleic acid, sugars from the 5'' end m3 r94 m3, linkages s3 o93 s3 (s phosphorothioate, o phosphodiester), T or U not given here) guide: UGCUGCUGCCCCUGGCGGGUGUUUUAGAGCUAGAAAUAGCAAGUUAAAAUAAGGCUAGUCCGUUAUCAACUUGAAAAAGUGGCACCGAGUCGGUGCUUUU', '0.97%');

Cited source: patent US20250152746A1
